Recorded values, source paper PMC7764960.

Target: T1, NAC1 (322-485) (Homo sapiens, UniProt Q96RE7 322-485)
T1 sequence: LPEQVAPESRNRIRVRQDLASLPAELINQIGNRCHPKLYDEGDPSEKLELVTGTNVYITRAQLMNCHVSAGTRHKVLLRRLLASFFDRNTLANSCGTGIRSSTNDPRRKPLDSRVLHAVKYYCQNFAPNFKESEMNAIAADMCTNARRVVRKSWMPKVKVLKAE
Assay: ITC; first of two sequential events (Kd1); ITC: 20 mM HEPES pH 7.0, 0.1 M NaCl, 1 mM TCEP, 20 C (Fig 2 legend says 25 C); pull-down: 4 C with 10 ug poly(dI/dC), buffer not stated; NMR 298 K
Conditions: protein: recombinant; tags: His (pET28HisTEV); blunt
property_measured: pKd
A value of pKd is the negative decimal logarithm of a concentration given in moles per litre.

For the binder GP1 14-mer dsDNA (dsDNA) DNA 1: GTATGCATGTATGT DNA 2: ACATACATGCATAC , what pKd is on record?
6.80
